Measured pest or weed control at 500 g/ha accompanies every entry in the list below.
Test system: greenhouse red spider mite (Tetranychus urticae)
Assay: Tetranychus urticae spray test, OP-resistant (TETRUR), bean leaf disks
Type: in vivo
Conditions: Tetranychus urticae, foliar, 144 h, application rate 500 g/ha, after 6 days; read-out: efficacy (spider mites killed)
Procedure: After 6 days, the effect in % is determined.

# compound, pest or weed control at 500 g/ha [%]
rows = [
    ("Cc1cc(C)c([S+]([O-])CC(F)(F)F)cc1/N=C(\\NC(C)C(F)(F)F)C1CC1 (stereo not shown)", 100),
    ("Cc1cc(F)c(/N=C(/NCc2ccccc2)C(F)(F)F)cc1SCC(F)(F)F", 90),
    ("Cc1cc(F)c(/N=C(/c2ccc(Cl)cc2)N2CCC(F)(F)CC2)cc1[S+]([O-])CC(F)(F)F (stereo not shown)", 90),
    ("CN/C(=N/c1cc(SCC(F)(F)F)c(C)cc1F)c1ccc(OC)cc1", 100),
]

---

Measured efficacy (beetle larvae killed) accompanies every entry in the list below.
Test system: larvae of the mustard beetle (Phaedon cochleariae)
Assay: Phaedon test (PHAECO spray treatment)
Conditions: application rate 500 g/ha, after 7 days

# compound, efficacy (beetle larvae killed)
rows = [
    ("CNC(=Nc1cc(SCC(F)(F)F)c(Cl)cc1Cl)C(F)(F)F", "100%"),
    ("CCNC(=Nc1cc([S+]([O-])CC(F)(F)F)c(C)cc1F)C(F)(F)F (stereo not shown)", "100%"),
    ("CNC(=Nc1ccc(C(F)(F)F)c(SCC(F)(F)F)c1)C(F)(F)F", "100%"),
    ("CCNC(=Nc1cc(SCC(F)(F)F)c(C)cc1F)C(F)(F)F", "100%"),
    ("NC(=Nc1cc(SCC(F)(F)F)c(Cl)cc1Cl)C(F)(F)F", "100%"),
    ("Cc1cc(F)c(/N=C(/N)C(F)(F)F)cc1[S+]([O-])CC(F)(F)F (stereo not shown)", "100%"),
    ("CNC(=Nc1cc(SCC(F)(F)F)c(C)cc1F)C(F)(F)F", "100%"),
    ("Cc1cc(F)c(N=C(NC(C)C)C(F)(F)F)cc1SCC(F)(F)F", "100%"),
    ("N/C(=N/c1ccc(C(F)(F)F)c([S+]([O-])CC(F)(F)F)c1)C(F)(F)F (stereo not shown)", "100%"),
    ("CN/C(=N/c1ccc(C(F)(F)F)c([S+]([O-])CC(F)(F)F)c1)C(F)(F)F (stereo not shown)", "100%"),
    ("CCCNC(=Nc1cc(SCC(F)(F)F)c(C)cc1F)C(F)(F)F", "100%"),
    ("N/C(=N/c1cc([S+]([O-])CC(F)(F)F)c(Cl)cc1Cl)C(F)(F)F (stereo not shown)", "100%"),
    ("Cc1cc(F)c(N=C(NCc2ccccn2)C(F)(F)F)cc1SCC(F)(F)F", "100%"),
]

---

System: greenhouse red spider mite (Tetranychus urticae)
Assay: Tetranychus urticae spray test, OP-resistant (TETRUR), bean leaf disks
Format: in vivo
Settings: Tetranychus urticae, foliar, 144 h, application rate 500 g/ha, after 6 days; read-out: efficacy (spider mites killed)
endpoint_label: pest or weed control at 500 g/ha (%)

# compound, value_reported
rows = [
    ("Cc1cc(F)c(/N=C(\\NCC(F)F)C2CC2)cc1[S+]([O-])CC(F)(F)F (stereo not drawn)", 100),
    ("Cc1cc(F)c(/N=C(\\N)C2(C#N)CC2)cc1[S+]([O-])CC(F)(F)F (stereo not drawn)", 100),
    ("Cc1ccc(/N=C2\\SCC(=O)N2CC(F)(F)F)cc1[S+]([O-])CC(F)(F)F (stereo not drawn)", 100),
    ("CN(C)/C(=N\\c1cc(SCC(F)(F)F)c(Cl)cc1Cl)c1ccc(Cl)nc1", 90),
    ("Cc1cc(F)c(/N=C(\\c2ccc(C(F)(F)F)cc2)N(C)C)cc1SCC(F)(F)F", 100),
    ("CN(C)/C(=N\\c1cc(SCC(F)(F)F)c(Cl)cc1Cl)C(F)(F)F", 100),
    ("Cc1cc(F)c(/N=C2\\SCC(=O)N2CC(F)(F)F)cc1SCC(F)(F)F", 90),
    ("Cc1cc(Cl)c([S+]([O-])CC(F)(F)F)cc1/N=C(\\N)C(F)(F)F (stereo not drawn)", 100),
    ("N/C(=N\\c1cc(SCC(F)(F)F)c(Cl)cc1Cl)c1cnccn1", 100),
]

---

Test system: greenhouse red spider mite (Tetranychus urticae)
Assay: Tetranychus urticae spray test, OP-resistant (TETRUR), bean leaf disks
Type: in vivo
Conditions: Tetranychus urticae, foliar, 144 h, application rate 500 g/ha, after 6 days; read-out: efficacy (spider mites killed)
Measured pest or weed control at 500 g/ha accompanies every entry in the list below.
endpoint_label: pest or weed control at 500 g/ha (%)

# molecule, system_tested, value_reported
records = [
    ("Cc1cc(Cl)c(/N=C(/N)C(F)(F)F)cc1[S+]([O-])CC(F)(F)F (centres unmarked)", "greenhouse red spider mite (Tetranychus urticae)", 100),
    ("[O-][S+](CC(F)(F)F)c1cc(/N=C(\\NCCc2ncc(C(F)(F)F)cc2Cl)C2CC2)c(Cl)cc1Cl (centres unmarked)", "greenhouse red spider mite (Tetranychus urticae)", 100),
    ("CN/C(=N\\c1cc([S+]([O-])CC(F)(F)F)c(C)cc1F)c1cccnc1 (centres unmarked)", "greenhouse red spider mite (Tetranychus urticae)", 100),
    ("Cc1cc(F)c(/N=C(/N)c2ccc([N+](=O)[O-])cc2)cc1SCC(F)(F)F", "greenhouse red spider mite (Tetranychus urticae)", 90),
    ("O=C1CS/C(=N\\c2cc([S+]([O-])CC(F)(F)F)ccc2Cl)N1CC(F)(F)F (centres unmarked)", "greenhouse red spider mite (Tetranychus urticae)", 100),
    ("Cc1cc(F)c(/N=C(/NCc2ccc(C(F)(F)F)cc2)C(F)(F)F)cc1SCC(F)(F)F", "greenhouse red spider mite (Tetranychus urticae)", 100),
    ("FC(F)(F)CSc1cc(/N=C(\\NCCc2ncc(C(F)(F)F)cc2Cl)C2CC2)c(Cl)cc1Cl", "greenhouse red spider mite (Tetranychus urticae)", 90),
    ("Cc1cc(F)c(/N=c2\\scc(C3(Cl)CC3)n2CC(F)(F)F)cc1[S+]([O-])CC(F)(F)F (centres unmarked)", "greenhouse red spider mite (Tetranychus urticae)", 90),
]

---

Test system: greenhouse red spider mite (Tetranychus urticae)
Assay: Tetranychus urticae spray test, OP-resistant (TETRUR), bean leaf disks
Type: in vivo
Settings: Tetranychus urticae, foliar, 144 h, application rate 500 g/ha, after 6 days; read-out: efficacy (spider mites killed)
endpoint_label: pest or weed control at 500 g/ha (%)

# compound, system_tested, endpoint_label, value_reported
rows = [
    ("Cc1cc(Cl)c(/N=C(\\N)C(F)(F)C(F)(F)Cl)cc1[S+]([O-])CC(F)(F)F (stereo not shown)", "greenhouse red spider mite (Tetranychus urticae)", "pest or weed control at 500 g/ha", 100),
    ("C/C=C/C=C/C(=N/c1cc(SCC(F)(F)F)c(C)cc1F)NC(C)CC (stereo not shown)", "greenhouse red spider mite (Tetranychus urticae)", "pest or weed control at 500 g/ha", 90),
    ("Cc1cc(F)c(/N=C(\\N)C2CCCC2)cc1SCC(F)(F)F", "greenhouse red spider mite (Tetranychus urticae)", "pest or weed control at 500 g/ha", 100),
    ("CN(C)/C(=N/c1cc(SCC(F)(F)F)c(Cl)cc1F)C(F)(F)F", "greenhouse red spider mite (Tetranychus urticae)", "pest or weed control at 500 g/ha", 100),
    ("Cc1cc(F)c(/N=C(/C2CC2)N(C)C)cc1SCC(F)(F)F", "greenhouse red spider mite (Tetranychus urticae)", "pest or weed control at 500 g/ha", 100),
    ("Cc1cc(F)c(/N=C(\\N)c2cnccn2)cc1SCC(F)(F)F", "greenhouse red spider mite (Tetranychus urticae)", "pest or weed control at 500 g/ha", 90),
    ("Cc1cc(F)c(/N=C(\\c2cccc(F)c2)N(C)C)cc1[S+]([O-])CC(F)(F)F (stereo not shown)", "greenhouse red spider mite (Tetranychus urticae)", "pest or weed control at 500 g/ha", 90),
    ("C#CCN/C(=N\\c1cc([S+]([O-])CC(F)(F)F)c(C)cc1F)C1CC1 (stereo not shown)", "greenhouse red spider mite (Tetranychus urticae)", "pest or weed control at 500 g/ha", 100),
    ("Cc1cc(C)c(SCC(F)(F)F)cc1/N=C(\\NCC(F)(F)F)C1CCC1", "greenhouse red spider mite (Tetranychus urticae)", "pest or weed control at 500 g/ha", 90),
    ("CCN(C)/C(=N\\c1cc(SCC(F)(F)F)c(C)cc1C)c1ccc(Cl)nc1", "greenhouse red spider mite (Tetranychus urticae)", "pest or weed control at 500 g/ha", 100),
    ("CN/C(=N\\c1cc(SCC(F)(F)F)c(C)cc1C)c1cccc(Cl)c1", "greenhouse red spider mite (Tetranychus urticae)", "pest or weed control at 500 g/ha", 90),
    ("Cc1cc(C)c(SCC(F)(F)F)cc1/N=C(\\NC1CC1)c1ccc(Cl)nc1", "greenhouse red spider mite (Tetranychus urticae)", "pest or weed control at 500 g/ha", 90),
    ("Cc1cc(F)c(/N=C(\\NC2CC2)C2CC2)cc1SCC(F)(F)F", "greenhouse red spider mite (Tetranychus urticae)", "pest or weed control at 500 g/ha", 80),
    ("CN/C(=N\\c1cc(SCC(F)(F)F)c(Cl)cc1Cl)c1cccnc1", "greenhouse red spider mite (Tetranychus urticae)", "pest or weed control at 500 g/ha", 100),
    ("Cc1cc(F)c(/N=C(/Nc2ccccc2)C(F)(F)F)cc1SCC(F)(F)F", "greenhouse red spider mite (Tetranychus urticae)", "pest or weed control at 500 g/ha", 100),
    ("Cc1cc(C)c([S+]([O-])CC(F)(F)F)cc1/N=C(\\N)c1ccccn1 (stereo not shown)", "greenhouse red spider mite (Tetranychus urticae)", "pest or weed control at 500 g/ha", 90),
    ("Cc1cc(F)c(/N=C(\\c2cccc(C(F)(F)F)c2)N(C)C)cc1[S+]([O-])CC(F)(F)F (stereo not shown)", "greenhouse red spider mite (Tetranychus urticae)", "pest or weed control at 500 g/ha", 100),
    ("Cc1cc(F)c(/N=C(\\c2cccn2C)N(C)C)cc1[S+]([O-])CC(F)(F)F (stereo not shown)", "greenhouse red spider mite (Tetranychus urticae)", "pest or weed control at 500 g/ha", 100),
    ("CN1CCCC/C1=N\\c1cc(SCC(F)(F)F)c(Cl)cc1Cl", "greenhouse red spider mite (Tetranychus urticae)", "pest or weed control at 500 g/ha", 90),
]
